biological target: T1, human PILRA, c-term His-Avi tag (human, UniProt Q9UKJ1 20-197, limits assumed); experiment: SPR (Biacore), antibody captured, PILRA as analyte
T1 construct: not shown: C-terminal His-Avi tag
T1 sequence (Q9UKJ1 20-197 limits assumed): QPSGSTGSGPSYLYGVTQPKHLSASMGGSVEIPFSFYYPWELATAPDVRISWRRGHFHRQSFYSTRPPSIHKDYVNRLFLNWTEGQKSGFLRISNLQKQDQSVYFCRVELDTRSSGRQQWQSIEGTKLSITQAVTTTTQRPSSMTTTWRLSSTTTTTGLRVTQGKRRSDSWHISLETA
value type: kon (M⁻¹ s⁻¹)
Enter your answer as a number in M⁻¹ s⁻¹; do not include the unit.

Below, 2 binders whose answers are already recorded.
{"binder": "A12 (antibody, V domains shown, phage campaign) VH: QVQLVQSGAEVKKPGASVKVSCKASGYNFNDYYIHWVRQAPGQGLEWMGWISAYNGNTNYAQKLQGRVTMTRDTSTSTVYMELSSLRSEDTAVYYCARDGWYCSSSSCYTGSDYWGQGTLVTVSS VL: DIQMTQSPSSLSASVGDRVTITCRASQSISNYLNWYQQKPGKAPKLLIYGASTLHSGVPSRFSGSGSGTDFTLTISSLQPEDFATYYCQQSYSTPFTFGPGTKVDIK", "unit annotation": "M⁻¹ s⁻¹", "experimental result": 63000}
{"binder": "E10 (antibody, V domains shown, phage campaign) VH: EVQLLESGGGLVKPGGSLRLSCAASGFTFSNYAMSWVRQAPGKGLEWVAVIYSGADTYYADSVKGRFTISRDDSKNTLYLQMNSLKTEDTAVYYCTRDIGLNYGDYELFDYWGQGTLVTVSS VL: DIVMTQSPLSLPVTPGEPASISCRSSQSLLHSNGYNYLDWYLQKPGQSPQLLIYDASNLETGVPDRFSGSGSGTDFTLKISRVEAEDVGVYYCMQGLQTPYVFGQGTKLEIK", "unit annotation": "M⁻¹ s⁻¹", "experimental result": 110000}

Shifting focus to the binder that follows.
(Q) Find the measured kon of hPA-005 (antibody, V domains shown) VH: QVILKESGPGILQSSQTLSLTCSFSGFSLSTFGMGVGWIRQPSGKGLESLAHIWWDDDKFYNPALKSRLTISKDTSKSQVFLKIANVDTADIATYYCTRIEDYGSYFAYWGQGTTLTVSS VL: DVQMNQSPSSLSASLGDPITITCHASQNIHVWLNWYQQRPGNIPRLLIYKASNLHTGVPSRFSGSGSGTGFTLTISSLQPEDIATYYCQQGQSYPYTFGGGTKLEIK and report it.
(A) 210000
